assay: label from the status in PepcDB records
measure: protein production

query sequence: MFDIGVNLTSSQFAKDRDDVVACAFDAGVNGLLITGTNLRESQQAQKLARQYSSCWSTAGVHPHDSSQWQAATEEAIIELAAQPEVVAIGECGLDFNRNFSTPEEQERAFVAQLRIAADLNMPVFMHCRDAHERFMTLLEPWLDKLPGAVLHCFTGTREEMQACVAHGIYIGITGWVCDERRGLELRELLPLIPAEKLLIETDAPYLLPRDLTPKPSSRRNEPAHLPHILQRIAHWRGEDAAWLAATTDANVKTLFGIAF
reading: not failed

query sequence: MNEYFFPKLTAVEALAPYRLRTTWSTGEVLEVDVGDILRKIPDLAPILDPEAFARVHIAEWEGSVEWFDTEFGRDNVYAWAKEQAGEVSHEMFGDWMHRNNLSLTTAAEALGISRRMVSYYRTAHKIIPRTIWLACLGWEATRPETKTLPRTLPAAYAKGVSASLS
reading: not failed

* * *

assay: label from the status in PepcDB records
measure: protein production

query sequence: MSNAITMGIFWHLIGAASAACFYAPFKKVKKWSWETMWSVGGIVSWIILPWAISALLLPNFWAYYSSFSLSTRLPVFLFGAMWGIGNINYGLTMRYLGMSMGIGIAIGITLIVGTLMTPIINGNFDVLISTEGGRMTLLGVLVALIGVGIVTRAGQLKERKMGIKAEEFNLKKGLVLAVMCGIFSAGMSFAMNAAKPMHEAAAALGVDPLYVALPSYVVIMGGGAIINLGFCFIRLAKVKDLSLKADFSLAKSLIIHNVLLSTLGGLMWYLQFFFYAWGHARIPAQYDYISWMLHMSFYVLCGGIVGLVLKEWNNAGRRPVTVLSLGCVVIIVAANIVGIGMAN
reading: failed
//
query sequence: MGGGPALNRDSSRHARPFISSPVKTLAIIPAFNEAQAIGPVLGDLPDGWVDEVVVVNNASTDATKANARAAGATVVDEPQQGYGAACLRGIAYAETRQPDVVVFLDGDYSDHPEELPRLVEPIAADEADFVVGSRIRGDAEPGALLPQAQVGNRFACSLMARLWGADYTDLGPFRAIRFRDLLALDMQDETFGWTIEMQIRALEAGLRVEEVPVSYRRGIGPSKITGTLSGTVKASAKILWTIGRMAATTHRRAPRLRERVDRARTDAPTPNPGGLEHHHHHH
reading: failed
//
query sequence: MFGLGGEAMIKTQVVKLKVNKTMQKHLDALCDYRRYCWNKGLETWQLMYEAHTLTTKDNPSPNERRVRDELVAGKADWQYDLSARCLQLAIKDLANAWKNFLDKAQPDWGKPRFKSKKAPRQGFKTDRAEIVNGKLRLDKPWSIAKDNWFDLASYEALKMRKVKIASIFKEKGLYYAALTYEENIPAKAKTHKKTAIDVNVGHFNYTDGLINVLPVRLQKLYKRIKHYQRMLARKREINGKLATKTNNYLAVRAKLQRDYRKVVNIQNDLLQKFTTRLVNDYDQIVIEDLAVKEMMMTHVASKGMQRSLFGKFRQILTYKCDWYNKELILASKMYPSTQRCAKCGYVKKGDEKITLQGNQKHGTKHNEYICYRCGYTNDRDENAVLNLLALAK
reading: failed
//
query sequence: MAARRAPISRRDRPAKPALSRRWIVDTAVALMRAEGLEKVTMRRLAQELDTGPASLYVYVANTAELHAAVLDALLGEVDLTGAGAEEDWREQLRAVLTSYTLVLFAHPQLARSALVARPSGENYLRLVERVLELLARSGAPGAQVAWGVDKLLQDATATAAEQATQEHDPASHEDWSATVRALRDADEATHPAIASHMPLLVAGSAHDRLRWSFDVLVNGITRTPVPGPARGAAG
reading: not failed
//
query sequence: MSKLEFLAFYDELTGLPNKNSLIRWLNLKVSQMDCIDTYLIFLEVRDLEKLNVTYGYDLVDELIIHISKRIKDIAGEGNKAFKIGFDRFAIICKSENISDFIERMLSQLLLPYNVNGNLIRVNFNIGAAQIENSNEAAANLMRRCDLALIKAKEEGLNEYVIFKPSIEIQTLEHHHHHH
reading: not failed
//
query sequence: MSCWKTINLVKDYGGMRIVLTAVSLMILFFIPEYLAMQLIHPQTVQRGDHALLFAGLLVAAIIAHKILHILPMISKKKLEKKIYWLKMRTWREIPKNMMLVSLLCPFLVITPVLFYAGAAMPSFAHYFCIISSIHFGYCLPDFLFAWKLIKAPKNCFVDQEADDFDILIQK
reading: failed
//
query sequence: ILWSQFLKFKEMELPAKEADKNRSKGIYQSLEGAVQAGQLKVPPGYHPLDVEKEWGKLHVAILEREKQLRSEFERLECLQRIVTKLQMEAGLCEEQLHQADALLQSDIRLLAAGKVPQRAGEVERDLDKADSMIRLLFNDVQTLKDGRHPQGEQMYRRVYRLHERLVAIRTEYNLRLK
reading: failed
//
query sequence: SGGTLRIYADSLKPNIPYKTILLSTTDTADFAVAESLEKYGLEKENPKDYCIARVMLPPGAQHSDERGAKEIILDDDECPLQIFREWPSDKGILVFQLKRRPP
reading: not failed
//
query sequence: MKTLLIIAHAPSENTKLMAEAVLKGAQHPDIEQVQTRWVRPLEATPEDVLSCDGIIMGTTENLGYMSGALKDFFDRCYYPCLEVKQGLPCALYVRAGNDGTGTCRAVETICTGLRWNWIQPPLVCRGDWQTLFIEQCEELGMTMAAGLDVGIY
reading: failed
//
query sequence: MSHSHSHGHSHEPTNYNRAFIISVALNTGFVVIEVVYGLAANSLALLADAGHNLSDVLGLLLAWGASFLGRRQPTPRRTYGLRRSSILAALLNAVLVLVASGAVAWEAIQRFAQPSPVSGSTIIGVAAVGIAINMGSALMFLSGRERDLNIRGAFIHLVADAAVSLGAVLAGIAIVATGWLWFDPVVSLMIVVVIIVSTWQLFQESLNLVTDAVPAGIEPLAVRTFLAELPGVSSIHDLHIWAMSTTETALTAHLIMPAGNLSDAFLVQVNQQLHDHFGIEHTTIHIETGDPSYPCPLAQENVV
reading: failed
//
query sequence: SLSTVELSGTVVKQGYLAKQGHKRKNWKVRRFVLRKDPAFLHYYDPSKEENRPVGGFSLRGSLVSALEDNGVPTGVKGNVQGNLFKVITKDDTHYYIQASSKAERAEWIEAIKKLT
reading: not failed
//
query sequence: MTAPEETAPVSVRKPSKPDLWKDSLGRTATRALQILLILTLTVVAVFGLLQIRLLVIPVLIALILAAAIGPFVNMLRRRGWRGGLATGVAFLGLLIVLGGVITVIVMSVRSQWDELISQAAAGLDELESFLLTGPFPIDREQLNQAREAVVEFAQSSQVRSGAVTGLSVVTEFLAGASLVVVILFFFLKDGAKIWEFFLRPFKGRREAKLRRVGKRTMEVLGGYVRGTAIVALVDTVAIGAALLIMQVPLAIPLAIIVFIGAFIPLVGATVAGILAALVALVANGPIVALIVIIVVIAVNQLEGDLLQPVVMGKSLELHALVILMALTAGTILAGIIGAVLAVPIAAVTWAIIQVWTAEDPDLEPMNPELPPANSQPT
reading: failed
